# Test system: MDA-MB-435
# Assay: NCI tumour cell line growth inhibition, 48 h
Could you please report measured TGI for the items listed next?

Example results:
| Compound | Test value |
| --- | --- |
| C[N+](C)(C)CC1CCCC1=O (stereo not given) | 3.22 µM |
| O=C(CCCCCCN1CC(=O)N2[C@@H](c3ccc(Cl)c(Cl)c3)c3[nH]c4ccccc4c3C[C@H]2C1=O)NO | 8.06 µM |
| O=[N+]([O-])/C(C(Cl)=C(Cl)Cl)=C(/Cl)SCc1ccccc1 | 5.12 µM |
| Nc1nc(Nc2ccccc2)c2[nH]cnc2n1 | > 100 µM |
| COc1ccc(N2C(=O)/C(=C\c3cc(OC)c(OC)c(OC)c3)SC2c2ccccc2)cc1 (stereo not given) | > 100 µM |
| CCC1(O)C(=O)OCc2c1cc1n(c2=O)Cc2cc3c(NC(=O)CN)cccc3nc2-1 (stereo not given) | > 70 µM |
| CC(C)=CCN1CC(C)C(=O)Nc2ccccc21 (stereo not given) | > 100 µM |
| CC1=C(O)C2=C(C(=O)C1=O)[C@@H](C)CC[C@@H]2[C@@H](C)C/C=C/C(C)(C)O | > 100 µM |
| Cc1ccc(-c2nc([P+](c3ccccc3)(c3ccccc3)c3ccccc3)c(S(=O)(=O)c3ccc(C)cc3)o2)cc1 | 3.04 µM |
| CCOC(=O)N1N=C(/C(C)=N/OC)C(C)S1=O (stereo not given) | > 100 µM |

Please supply TGI for each of the following items, keeping them in order.
1. CCOC(=O)NNC(=O)NCc1cccc(CNC(=O)NNC(=O)OCC)c1
2. C[N+]12C=CC=C1C(N1CCCC1)c1scc(-c3ccccc3)c12 (stereo not given)

Output line:
1. > 100 µM
2. > 100 µM

Please supply TGI for each of the following items, keeping them in order.
1. C[C@]12CC[C@@H]3c4cc(OC(F)F)c(OS(N)(=O)=O)cc4CC[C@H]3[C@@H]1CC[C@@H]2O
2. O=C(Nc1cccc(-n2cc(-c3ccncc3)c(-c3cc(O)cc(Cl)c3)n2)c1)c1cc(C(F)(F)F)cc(C(F)(F)F)c1
3. NC(=O)C(=CNC(=S)Nc1ccccc1)C(N)=O
4. CC1(C)OCC([C@H]2O[C@@H](CC(=S)NCCCCCCCCCCCCNC(=S)C[C@H]3O[C@@H](C4COC(C)(C)O4)[C@H]4OC(C)(C)O[C@H]43)[C@H]3OC(C)(C)O[C@H]32)O1 (stereo not given in full)
5. O[C@@]12Cc3c([nH]c4ccccc34)[C@@H]3Oc4cccc5c4[C@@]31CCN(CC1CC1)[C@@H]2C5

Output line:
0.603 µM
> 100 µM
> 100 µM
> 100 µM
29.2 µM

Please supply TGI for each of the following items, keeping them in order.
1. CC12C=CC(=O)C=C1CCC1C3CCC(O)(C(=O)CO)C3(C)CC(O)C12F (stereo not given)
2. c1cnc2c(c1)ccc1cccnc12

Output line:
1: > 100 µM; 2: > 100 µM

Input line: Could you share which TGI value was measured for "CN(CCNCc1ccccn1)CCNCc1ccccn1" ?
Output line: 4.93 µM
